Here the recorded half-life is given for each entry.
- method notes: Plasma pharmacokinetics on Day 10 after multiple doses of LED-E q8h (VNRX-7145-101 Part 2, VNRX-7145-102 Part 2)
- Assay type: in vivo, human
- experimental conditions: human, plasma, oral, 500 mg, Day 10, LED-E 500 mg q8h; plasma; geometric mean (CV %); read-out: t1/2 (converted)

{"columns": ["line notation", "unit abbreviation", "half-life"],
 "data": [
  ["CCC(=O)N[C@H]1Cc2cccc(C(=O)OCOC(=O)C(CC)CC)c2OB1O", "h", 9.14],
  ["CCC(=O)N[C@H]1Cc2cccc(C(=O)O)c2OB1O", "h", 12.5]
]}

###

- method notes: Plasma pharmacokinetics after single ascending doses of LED-E (VNRX-7145-101 Part 1)
- Format: in vivo
- experimental conditions: human, oral, single dose LED-E 200 mg, geometric mean (CV %), read-out: t1/2 (converted)
- Procedure: Quantitation used separate weighted 1 /x^2 linear least-squares regression analyses generated from calibration standards. Exploratory screening for metabolites was performed for some samples. […] Single-dose plasma pharmacokinetic parameters were determined in Part 1, and both single-dose (Day 1) and multiple-dose ([…]) parameters were determined in Part 2. […]
compounds and their reported half-life

{"columns": ["line notation", "half-life (h)"],
 "data": [
  ["CCC(=O)N[C@H]1Cc2cccc(C(=O)OCOC(=O)C(CC)CC)c2OB1O", 3.34],
  ["CCC(=O)N[C@H]1Cc2cccc(C(=O)O)c2OB1O", 6.1]
]}

###

- method notes: Plasma pharmacokinetics on Day 10 after multiple doses of LED-E q8h (VNRX-7145-101 Part 2, VNRX-7145-102 Part 2)
- Type: in vivo, human
- experimental conditions: human, oral; Day 10, LED-E 150 mg q8h; plasma; geometric mean (CV %); read-out: Vz/F
parameter: Vd/F (L)

{"columns": ["line notation", "value reported"],
 "data": [
  ["CCC(=O)N[C@H]1Cc2cccc(C(=O)OCOC(=O)C(CC)CC)c2OB1O", 3350]
]}

###

- method notes: Plasma pharmacokinetics after single ascending doses of LED-E (VNRX-7145-101 Part 1)
- Assay type: in vivo
- experimental conditions: human, oral, single dose LED-E 200 mg, geometric mean (CV %)

{"columns": ["line notation", "AUC(0-inf) [ng·h/mL]"],
 "data": [
  ["CCC(=O)N[C@H]1Cc2cccc(C(=O)OCOC(=O)C(CC)CC)c2OB1O", 249],
  ["CCC(=O)N[C@H]1Cc2cccc(C(=O)O)c2OB1O", 26200]
]}

###

- method notes: Plasma pharmacokinetics after single ascending doses of LED-E (VNRX-7145-101 Part 1)
- Type: in vivo
- experimental conditions: human, oral, single dose LED-E 300 mg, geometric mean (CV %)
- Experimental: Quantitation used separate weighted 1 /x^2 linear least-squares regression analyses generated from calibration standards. Exploratory screening for metabolites was performed for some samples. […] Single-dose plasma pharmacokinetic parameters were determined in Part 1, and both single-dose (Day 1) and multiple-dose ([…]) parameters were determined in Part 2. […]
Measured Cmax, listed per entry for reference.
parameter: Cmax (ng/mL)

{"columns": ["line notation", "parameter", "unit abbreviation", "value reported"],
 "data": [
  ["CCC(=O)N[C@H]1Cc2cccc(C(=O)O)c2OB1O", "Cmax", "ng/mL", 7570],
  ["CCC(=O)N[C@H]1Cc2cccc(C(=O)OCOC(=O)C(CC)CC)c2OB1O", "Cmax", "ng/mL", 347]
]}
